# Method: Solubility tests of ropivacaine free base and corresponding salts
# Format: physicochemical
# Condition Notes: ethyl oleate, 25 °C, oil or lipid, thermodynamic from solid, in ethyl oleate, read-out: Solubility
Structures can show the parent of a compound that is named as a salt.
Endpoint Name: Solubility (µg/mL)
Write the answer as a number in µg/mL, unit excluded.

Record summary for CCCN1CCCC[C@H]1C(=O)Nc1c(C)cccc1C [Ropivacaine hydrochloride] : reported Solubility = 2200

###

# Method: Solubility tests of ropivacaine free base and corresponding salts
# Type: physicochemical
# Condition Notes: tetrahydrofurfuryl polyethylene glycol ether, 25 °C, organic solvent or mixture, thermodynamic from solid, in tetrahydrofurfuryl polyethylene glycol ether, read-out: Solubility
Counter-ions that a name gives are not always drawn.
Endpoint Name: Solubility (mg/mL)
Dear colleague, please return just the value in mg/mL, with no unit written.

# Solubility (molecule: CCCN1CCCC[C@H]1C(=O)Nc1c(C)cccc1C [Ropivacaine hydrochloride] ) is 9

###

# Method: Solubility tests of ropivacaine free base and corresponding salts
# Format: physicochemical
# Condition Notes: anhydrous ethanol, 25 °C, organic solvent or mixture, thermodynamic from solid, in anhydrous ethanol, read-out: Solubility
# Excerpt: If a drug dissolved completely, addition of this drug was continued until saturation.
Counter-ions that a name gives are not always drawn.
Endpoint Name: Solubility (mg/mL)
Please reply with the bare figure in mg/mL and do not write the unit itself.

Per the record, CCCN1CCCC[C@H]1C(=O)Nc1c(C)cccc1C [Ropivacaine hydrochloride] has Solubility of 95

###

# Method: Solubility tests of ropivacaine free base and corresponding salts
# Assay type: physicochemical
# Condition Notes: glyceryl monoacetate, 25 °C, organic solvent or mixture, thermodynamic from solid, in glyceryl monoacetate, read-out: Solubility
# Source text: If a drug dissolved completely, addition of this drug was continued until saturation.
Structures can show the parent of a compound that is named as a salt.
Endpoint Name: Solubility

// CCCN1CCCC[C@H]1C(=O)Nc1c(C)cccc1C [Ropivacaine hydrochloride] : Solubility value = 30 mg/mL

###

# Method: Solubility tests of ropivacaine free base and corresponding salts
# Type: physicochemical
# Condition Notes: corn oil, 25 °C, oil or lipid, thermodynamic from solid, in corn oil, read-out: Solubility
Where a name gives a salt, the structure may show the parent alone.
Endpoint Name: Solubility (µg/mL)
Give the value in µg/mL but do not write µg/mL after it.

Entry CCCN1CCCC[C@H]1C(=O)Nc1c(C)cccc1C [Ropivacaine hydrochloride] , Solubility reported as 2500

###

# Method: Solubility tests of ropivacaine free base and corresponding salts
# Format: physicochemical
# Condition Notes: sesame oil, 25 °C, oil or lipid, thermodynamic from solid, in sesame oil, read-out: Solubility
Where a name gives a salt, the structure may show the parent alone.
Endpoint Name: Solubility (µg/mL)
Please state the figure in µg/mL; there is no need to write the unit.

Entry CCCN1CCCC[C@H]1C(=O)Nc1c(C)cccc1C [Ropivacaine hydrochloride] , Solubility reported as 2000

###

# Method: Solubility tests of ropivacaine free base and corresponding salts
# Type: physicochemical
# Condition Notes: benzyl benzoate, 25 °C, organic solvent or mixture, thermodynamic from solid, in benzyl benzoate, read-out: Solubility
Structures can show the parent of a compound that is named as a salt.
Endpoint Name: Solubility

Documented Solubility of CCCN1CCCC[C@H]1C(=O)Nc1c(C)cccc1C [Ropivacaine hydrochloride] : 2500 µg/mL

###

The reader will find reported Solubility values listed item by item below.
# Method: Compound compositions: dezocine and parecoxib in the drug delivery systems
# Type: physicochemical
# Condition Notes: prescribed compositions of Table IV; 25° C. and 4° C., about 24 h

>  <Smiles String>
CCC(=O)NS(=O)(=O)c1ccc(-c2c(-c3ccccc3)noc2C)cc1

>  <Solubility>
> 20 mg/mL

$$$$

Please find the next compound below.
What the record says about C[C@@]12CCCCC[C@@H](Cc3ccc(O)cc31)[C@@H]2N : Solubility is > 30 mg/mL
